# testSystem: T1, human CD28 (human, UniProt P10747 19-220)
# T1 construct: whole, on cells; Endogenous CD28 of Jurkat/IL2 reporter cells
# runDescription: flow cytometry, Jurkat/IL2 reporter cells (endogenous CD28), 33.3 nM, PE anti-human Fc
readoutKind: MFI at 33.3 nM (MFI)

binder | unit | valueObserved
CD80 WT IgV-Fc (Fc fusion, not shown: a dimerising Fc or GST, also called WT CD80-IgV-Fc; wild-type CD80 IgV-Fc) VIHVTKEVKEVATLSCGHNVSVEELAQTRIYWQKEKKMVLTMMSGDMNIWPEYKNRTIFDITNNLSIVILALRPSDEGTYECVVLKYEKDAFKREHLAEVTLSVKAD | MFI | 41
E24D/Q27R/E35D/T41S/M47V/L85Q CD80 IgV-Fc (Fc fusion, not shown: a dimerising Fc or GST) VIHVTKEVKEVATLSCGHNVSVEDLARTRIYWQKDKKMVLSMMSGDVNIWPEYKNRTIFDITNNLSIVILALRPSDEGTYECVVQKYEKDAFKREHLAEVTLSVKAD | MFI | 66

A = H18Y/E35D/M47I/V68M/A71G/R94L CD80 IgV-Fc (Fc fusion, not shown: a dimerising Fc or GST) VIHVTKEVKEVATLSCGYNVSVEELAQTRIYWQKDKKMVLTMMSGDINIWPEYKNRTIFDITNNLSIMILGLRPSDEGTYECVVLKYEKDAFKLEHLAEVTLSVKAD
B = A26E/Q27R/E35D/M47L/N48Y/L85Q CD80 IgV-Fc (Fc fusion, not shown: a dimerising Fc or GST) VIHVTKEVKEVATLSCGHNVSVEELERTRIYWQKDKKMVLTMMSGDLYIWPEYKNRTIFDITNNLSIVILALRPSDEGTYECVVQKYEKDAFKREHLAEVTLSVKAD
Could you determine which record has the numerically smaller MFI at 33.3 nM? Candidates: A and B Please indicate the selected item by its label.
B
